test system: Ipomoea hederacea (IPOHE); experiment: Pre-emergence glasshouse herbicide test; assay type: in vivo; details: pre-emergence (sprayed after one day cultivation), 1000 g/h, evaluated after 13 days, five point scale
In this section we review reported percentage damage caused to the plant, PRE Application IPOHE values for a set of molecules.
endpoint: percentage damage caused to the plant, PRE Application IPOHE

>  <molecule>
Cc1c(-n2ncc(S(C)(=O)=O)c(O)c2=O)ccc(S(C)(=O)=O)c1C1=NOCC1

>  <result>
5 (5=80-100%)

$$$$
>  <molecule>
C=Cc1cnn(-c2ccc(S(C)(=O)=O)c(C3=NOCC3)c2C)c(=O)c1O

>  <result>
4 (4=60-79%)

$$$$
>  <molecule>
C[S+]([O-])c1cnn(-c2ccc(C(F)(F)F)cc2S(C)(=O)=O)c(=O)c1O (stereo not shown)

>  <result>
4 (4=60-79%)

$$$$
>  <molecule>
Cc1cnn(-c2ccc(S(C)(=O)=O)c(C3=NOCC3)c2C)c(=O)c1O

>  <result>
4 (4=60-79%)

$$$$

Source listed as patent US20140323300A1.
